Tested on: IgE antibodies from patients
Assay text: Wheat epitope mapping (2): overlapping 10-amino-acid peptide fragments shifted by one amino acid
Format: binding, human
Cond: serum of patient G7 (adult, general immediate type allergy to wheat); partial sequence
Attribute measured: Epitope sequence binding to IgE antibody, rank of the sequence

# input Test system IgE antibodies from patients; read-out Epitope sequence binding to IgE antibody, rank of the sequence; what value for 2609 (QLVQQLCC; REGION 1..8: note = epitope) [compound 2609] ?
# output Key

# input Test system IgE antibodies from patients; read-out Epitope sequence binding to IgE antibody, rank of the sequence; what value for 2672 (RFEKEAAEMN; REGION 1..10: note = epitope) [compound 2672] ?
# output Key

# input Test system IgE antibodies from patients; read-out Epitope sequence binding to IgE antibody, rank of the sequence; what value for 2673 (EAAEMNKR; REGION 1..8: note = epitope) [compound 2673] ?
# output Key

# input Test system IgE antibodies from patients; read-out Epitope sequence binding to IgE antibody, rank of the sequence; what value for 2698 (KGPTL; REGION 1..5: note = epitope) [compound 2698] ?
# output Key
